Data credit: patent US20260242478A1

Entries and their Anti-CD28 Fab signal in the presence of CD28
# system: Anti-CD28 Fab (SEQ ID NOs: 696, 697)
# Sequence (VH, as listed by the source, chain 1 of 2): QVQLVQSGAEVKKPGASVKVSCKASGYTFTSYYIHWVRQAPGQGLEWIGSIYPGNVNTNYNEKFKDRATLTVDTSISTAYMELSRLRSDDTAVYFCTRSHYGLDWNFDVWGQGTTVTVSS
# Sequence (VL, as listed by the source, chain 2 of 2): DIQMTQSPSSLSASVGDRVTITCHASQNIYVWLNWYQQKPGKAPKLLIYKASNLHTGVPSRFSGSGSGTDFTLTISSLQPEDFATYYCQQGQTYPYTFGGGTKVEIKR
# test: phage binding ELISA; anti-CD28 Fab on plate pre-incubated with CD28 antigen as competitor
// keep it numeric: no unit symbol after the value

[[record]]
binder = "WCAEFFNYHWPLCF [Phage-1468 peptide (Peptide-92 library, SEQ ID NO: 1764)]"
quantitative_readout = 0.06

[[record]]
binder = "LCTAGLAYNWPTCL [Phage-1471 peptide (Peptide-92 library, SEQ ID NO: 1767)]"
quantitative_readout = 0.05


The recorded Anti-CD28 Fab signal in the presence of CD28 for entry TCAAGAHYPWPYCL [Phage-1467 peptide (Peptide-92 library, SEQ ID NO: 1763)] equals 0.05

The recorded Anti-CD28 Fab signal in the presence of CD28 for entry MCTAGALYNWPTCL [Phage-1466 peptide (Peptide-92 library, SEQ ID NO: 1762)] equals 0.09
